- System: B-16 melanoma cells
- experiment: Melanin production inhibiting effect on chromatophore (visual whiteness of cell pellets)
- Assay type: cell-based
- Parameters: key: −: Equal to solvent control (black); +: Slightly different from solvent control (dark gray); ++: Markedly different from solvent control (pale gray); +++: No coloring of cells (white)
- reported_conditions: 3.1 ppm, 3 days culture with sample
measured_endpoint: whiteness of cell pellets, evaluated visually

>>> reported_measurement("CCC(O)C=CC1C(C)CCCC1(C)C (stereo not shown) [1″b]")
"++"
>>> reported_measurement("CCCCCC(=O)C=CC1C(C)CCCC1(C)C (stereo not shown) [Compound 1′i]")
"+++"
>>> reported_measurement("CCCCCC(=O)C(C)=CC1C(C)CCCC1(C)C (stereo not shown) [1′x]")
"++"
>>> reported_measurement("CCCCCC(O)C(C)=CC1C(C)CCCC1(C)C (stereo not shown) [Compound 1″x]")
"++"
>>> reported_measurement("CCC(O)CCC1C(C)CCCC1(C)C (stereo not shown) [1^4′b]")
"++"
>>> reported_measurement("CC(C)CC(O)C=CC1C(C)CCCC1(C)C (stereo not shown) [1″g]")
"+++"
>>> reported_measurement("CCCC(=O)C=CC1C(C)CCCC1(C)C (stereo not shown) [1′c]")
"++"
